# TESTED ON: murine sEH (Mus musculus)
# Sequence (P34914 whole entry): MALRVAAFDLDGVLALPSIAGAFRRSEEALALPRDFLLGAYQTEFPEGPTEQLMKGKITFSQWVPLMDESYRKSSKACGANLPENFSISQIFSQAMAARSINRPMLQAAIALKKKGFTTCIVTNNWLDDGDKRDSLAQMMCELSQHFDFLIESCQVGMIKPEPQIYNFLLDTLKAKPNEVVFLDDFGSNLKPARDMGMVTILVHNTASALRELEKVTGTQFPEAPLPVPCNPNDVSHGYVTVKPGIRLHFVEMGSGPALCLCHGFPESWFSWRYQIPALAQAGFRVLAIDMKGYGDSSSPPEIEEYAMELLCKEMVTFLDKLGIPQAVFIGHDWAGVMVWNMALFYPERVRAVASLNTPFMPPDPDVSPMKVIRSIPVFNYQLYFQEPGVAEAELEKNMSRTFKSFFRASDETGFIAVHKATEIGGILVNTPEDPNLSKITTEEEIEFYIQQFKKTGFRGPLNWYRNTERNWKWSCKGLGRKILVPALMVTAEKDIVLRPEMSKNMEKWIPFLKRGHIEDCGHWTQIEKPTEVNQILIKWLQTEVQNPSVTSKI
The label 1 (yes) is reserved for IC50 strictly under 2 nM; 0 (no) covers values equal to or above it.

Here are 6 compounds together with their reported answers.
• CC(=O)N1CCC(NC(=O)NC23CC4CC(C)(CC(C2)c2cc(N)ccc24)C3)CC1 (stereo not shown) [Compound 18] = 0 (no)
• COc1cc2c(cc1OC)C1CC3(C)CC2CC(NC(=O)NC2CCN(C(C)=O)CC2)(C1)C3 [Compound 19] = 0 (no)
• COc1ccc2c(c1)C1CC3(C)CC2CC(NC(=O)NC2CCN(C(C)=O)CC2)(C1)C3 (stereo not shown) [Compound 15] = 1 (yes)
• CC(=O)N1CCC(NC(=O)NC23CC4CC(C)(CC(C2)c2cc(F)ccc24)C3)CC1 (stereo not shown) [Compound 14] = 1 (yes)
• CC(=O)N1CCC(NC(=O)NC23CC4CC(C)(CC(C2)c2cc([N+](=O)[O-])ccc24)C3)CC1 (stereo not shown) [Compound 17] = 0 (no)
• COc1cc2c(cc1OC)C1CC3(C)CC2CC(NC(=O)NC2CCN(C(=O)C4CCOCC4)CC2)(C1)C3 [Compound 20] = 1 (yes)

Here is the next item to consider.
input: I wonder whether CC(=O)c1ccc2c(c1)C1CC3(C)CC2CC(NC(=O)NC2CCN(C(C)=O)CC2)(C1)C3 (stereo not shown) [Compound 16] has IC50 below 2 nM. Can you tell?
output: 0 (no)
